Test system: Rattus norvegicus
procedure text: Reversal of RAMH-induced dipsogenia in Lister Hooded rat at 3 mg/kg, po
Format: functional
test readout: Activity (%)

>>> numeric_result("c1cc2c(cc1OCC1CCNCC1)CCN(C1CCC1)CC2")
44
>>> numeric_result("O=C(c1ccc(Cl)cc1)N1CCC(Oc2ccc3c(c2)CCN(C2CCC2)CC3)CC1")
89
>>> numeric_result("CS(=O)(=O)N1CCC(Oc2ccc3c(c2)CCN(C2CCC2)CC3)CC1")
6
>>> numeric_result("O=C(N1CCOCC1)N1CCC(Oc2ccc3c(c2)CCN(C2CCC2)CC3)CC1")
100
>>> numeric_result("Cc1cc(C(=O)N2CCC(Oc3ccc4c(c3)CCN(C3CCC3)CC4)CC2)no1")
11
>>> numeric_result("O=C(c1ccc(OCCCc2cnc[nH]2)cc1)C1CC1 [CIPROXIFAN]")
100

Reference source: ChEMBL document CHEMBL3091427
